// values below are reported MIC
# System: Staphylococcus aureus
# MEASUREMENT_DESCRIPTION: Antibacterial activity against erythromycin-susceptible Staphylococcus aureus ATCC 25923 by broth microdilution method
# Assay type: functional
Your answer should be a plain number; it is taken to be in µg/mL.

MOLECULE	RECORDED_VALUE
CC[C@H]1OC(=O)[C@H](C)[C@@H](O[C@H]2C[C@@](C)(OC)[C@@H](O)[C@H](C)O2)[C@H](C)[C@@H](O[C@@H]2O[C@H](C)C[C@H](N(C)C)[C@H]2O)[C@](C)(O)C[C@@H](C)CN(C)[C@H](C)[C@@H](O)[C@]1(C)O [AZITHROMYCIN]	0.12
CC[C@H]1OC(=O)[C@H](C)[C@@H](O[C@H]2C[C@@](C)(OC)[C@@H](OC(=O)NNC(=O)c3ccc4[nH]c(-c5ccc(C)cc5)nc4c3)[C@H](C)O2)[C@H](C)[C@@H](O[C@@H]2O[C@H](C)C[C@H](N(C)C)[C@H]2O)[C@](C)(OC)C[C@@H](C)C(=O)[C@H](C)[C@@H](O)[C@]1(C)O	0.25
CC[C@H]1OC(=O)[C@H](C)[C@@H](O[C@H]2C[C@@](C)(OC)[C@@H](OC(=O)NNC(=O)c3ccc4[nH]c(C(C)C)nc4c3)[C@H](C)O2)[C@H](C)[C@@H](O[C@@H]2O[C@H](C)C[C@H](N(C)C)[C@H]2O)[C@](C)(OC)C[C@@H](C)C(=O)[C@H](C)[C@@H](O)[C@]1(C)O	0.12
CC[C@H]1OC(=O)[C@H](C)[C@@H](O[C@H]2C[C@@](C)(OC)[C@@H](OC(=O)NNC(=O)c3ccc4[nH]c(-c5ccc([N+](=O)[O-])cc5)nc4c3)[C@H](C)O2)[C@H](C)[C@@H](O[C@@H]2O[C@H](C)C[C@H](N(C)C)[C@H]2O)[C@](C)(OC)C[C@@H](C)C(=O)[C@H](C)[C@@H](O)[C@]1(C)O	1
CC[C@H]1OC(=O)[C@H](C)[C@@H](O[C@H]2C[C@@](C)(OC)[C@@H](O)[C@H](C)O2)[C@H](C)[C@@H](O[C@@H]2O[C@H](C)C[C@H](N(C)C)[C@H]2O)[C@](C)(O)C[C@@H](C)C(=O)[C@H](C)[C@@H](O)[C@]1(C)O [ERYTHROMYCIN]	0.12

Moving on to another molecule below.
Considering CC[C@H]1OC(=O)[C@H](C)[C@@H](O[C@H]2C[C@@](C)(OC)[C@@H](O)[C@H](C)O2)[C@H](C)[C@@H](O[C@@H]2O[C@H](C)C[C@H](N(C)C)[C@H]2O)[C@](C)(OC)C[C@@H](C)C(=O)[C@H](C)[C@@H](O)[C@]1(C)O [CLARITHROMYCIN] , its MIC with Staphylococcus aureus was recorded as 0.12
